src = ChEMBL document CHEMBL4251596

- Tested on: Serratia marcescens
- assay_protocol: Antibacterial activity against Serratia marcescens ATCC 14756 assessed as diameter of inhibition at 30 ug/disk after 24 hrs by disk diffusion assay (reference value: 0 mm)
- Assay type: functional
- applied_conditions: ATCC 14756, 24 h, read-out: DIZ
In this section we review reported zone of inhibition at 30 µg/disc values for a set of compounds.
All answers are understood in mm, so give the number only.

{"compound": "CCC(CC)(c1ccc(C/C(=N\\O)c2cn(-c3ccc(Cl)cc3)nn2)[nH]1)c1ccc(C/C(=N\\O)c2cn(-c3ccc(Cl)cc3)nn2)[nH]1", "units_of_measure": "mm", "zone of inhibition at 30 µg/disc": 0}
{"compound": "O/N=C(/CO/N=C(\\Cc1c[nH]c2ccccc12)c1cn(-c2ccc(Cl)cc2)nn1)c1cn(-c2ccc(Cl)cc2)nn1", "units_of_measure": "mm", "zone of inhibition at 30 µg/disc": 0}

Proceeding to the next compound to report its zone of inhibition at 30 µg/disc.
Given O=C(O)c1cn(C2CC2)c2cc(N3CCNCC3)c(F)cc2c1=O [CIPROFLOXACIN] , state its recorded zone of inhibition at 30 µg/disc.
29

----------
- System: Staphylococcus epidermidis
- assay_protocol: Antibacterial activity against Staphylococcus epidermidis ATCC 12228 assessed as diameter of inhibition at 30 ug/disk after 24 hrs by disk diffusion assay (reference value: 0 mm)
- Type: functional
- applied_conditions: ATCC 12228, 24 h, read-out: DIZ
result_type: zone of inhibition at 30 µg/disc (mm)
API: value field is a number in mm; no unit string.

What is its zone of inhibition at 30 µg/disc for Staphylococcus epidermidis? Entry: `O/N=C(\Cc1ccc[nH]1)c1cn(-c2ccc(Cl)cc2)nn1`
0

Same again, this time with `O/N=C(\Cc1ccc[nH]1)c1cn(-c2ccccc2)nn1`
0

Lookup `COc1ccc(-n2cc(/C(Cc3ccc[nH]3)=N/O)nn2)cc1`
0

Okay, and `O/N=C(/CO/N=C(\Cc1c[nH]c2ccccc12)c1cn(-c2ccc(Cl)cc2)nn1)c1cn(-c2ccc(Cl)cc2)nn1` ?
0

Same question for `CCC(CC)(c1ccc[nH]1)c1ccc(C/C(=N\O)c2cn(-c3ccc(Cl)cc3)nn2)[nH]1` please.
12

----------
Each item that follows carries a reported zone of inhibition at 30 µg/disc.
- System: Staphylococcus aureus
- assay_protocol: Antibacterial activity against methicillin-resistant Staphylococcus aureus BMB9393 assessed as diameter of inhibition at 30 ug/disk after 24 hrs by disk diffusion assay (reference value: 0 mm)
- Format: functional
- applied_conditions: BMB9393, 24 h, read-out: DIZ
Write the quantity with the unit trailing the number.

{"smiles_text": "O/N=C(\\Cc1ccc[nH]1)c1cn(-c2ccccc2)nn1", "result_type": "zone of inhibition at 30 µg/disc", "value": "0 mm"}

Param item = `CCC(CC)(c1ccc(C/C(=N\O)c2cn(-c3ccc(Cl)cc3)nn2)[nH]1)c1ccc(C/C(=N\O)c2cn(-c3ccc(Cl)cc3)nn2)[nH]1` ; retrieve measured zone of inhibition at 30 µg/disc.
0 mm

# repeat for `CN[C@H](CC(C)C)C(=O)N[C@H]1C(=O)N[C@@H](CC(N)=O)C(=O)N[C@H]2C(=O)N[C@H]3C(=O)N[C@H](C(=O)N[C@H](C(=O)O)c4cc(O)cc(O)c4-c4cc3ccc4O)[C@H](O)c3ccc(c(Cl)c3)Oc3cc2cc(c3O[C@@H]2O[C@H](CO)[C@@H](O)[C@H](O)[C@H]2O[C@H]2C[C@](C)(N)[C@H](O)[C@H](C)O2)Oc2ccc(cc2Cl)[C@H]1O`
13 mm

Next compound: `COc1ccc(-n2cc(/C(Cc3ccc[nH]3)=N/O)nn2)cc1`
0 mm

----------
- assay_protocol: Hemolytic activity in human erythrocytes at 10 to 200 ug/ml after 3 hrs relative to control
- Type: ADME, cell-based, Erythrocyte
- applied_conditions: erythrocytes, read-out: Activity
result_type: hemolysis at 3 h

hemolysis at 3 h lookup needed for `CCC(CC)(c1ccc[nH]1)c1ccc(C/C(=N\O)c2cn(-c3ccc(Cl)cc3)nn2)[nH]1` , thanks.
< 10%

----------
- System: Staphylococcus epidermidis
- assay_protocol: Antibacterial activity against Staphylococcus epidermidis ATCC 12228 assessed as diameter of inhibition at 30 ug/disk after 24 hrs by disk diffusion assay (reference value: 0 mm)
- Type: functional
- applied_conditions: ATCC 12228, 24 h, read-out: DIZ
result_type: zone of inhibition at 30 µg/disc (mm)
Write the number in mm without appending the unit.

Examples with their reported zone of inhibition at 30 µg/disc follow.
{"smiles_text": "CCC(CC)(c1ccc(C/C(=N\\O)c2cn(-c3ccc(Cl)cc3)nn2)[nH]1)c1ccc(C/C(=N\\O)c2cn(-c3ccc(Cl)cc3)nn2)[nH]1", "tested_on": "Staphylococcus epidermidis", "zone of inhibition at 30 µg/disc [mm]": 0}
{"smiles_text": "CN[C@H](CC(C)C)C(=O)N[C@H]1C(=O)N[C@@H](CC(N)=O)C(=O)N[C@H]2C(=O)N[C@H]3C(=O)N[C@H](C(=O)N[C@H](C(=O)O)c4cc(O)cc(O)c4-c4cc3ccc4O)[C@H](O)c3ccc(c(Cl)c3)Oc3cc2cc(c3O[C@@H]2O[C@H](CO)[C@@H](O)[C@H](O)[C@H]2O[C@H]2C[C@](C)(N)[C@H](O)[C@H](C)O2)Oc2ccc(cc2Cl)[C@H]1O", "tested_on": "Staphylococcus epidermidis", "zone of inhibition at 30 µg/disc [mm]": 17}

Let us move to another entry and its zone of inhibition at 30 µg/disc.
// query zone of inhibition at 30 µg/disc value for entry `O=[N+]([O-])c1ccc(-n2cc(/C(Cc3ccc[nH]3)=N/O)nn2)cc1`
0

----------
- Tested on: Staphylococcus aureus
- assay_protocol: Antibacterial activity against methicillin-resistant Staphylococcus aureus BMB9393 assessed as diameter of inhibition at 30 ug/disk after 24 hrs by disk diffusion assay (reference value: 0 mm)
- Format: functional
- applied_conditions: BMB9393, 24 h, read-out: DIZ
// zone of inhibition at 30 µg/disc lookup, one value per entry
Answer format: numeric, mm implied, no suffix.

Answered examples (3):
{"smiles_text": "O/N=C(/CO/N=C(\\Cc1c[nH]c2ccccc12)c1cn(-c2ccc(Cl)cc2)nn1)c1cn(-c2ccc(Cl)cc2)nn1", "value": 0}
{"smiles_text": "O=[N+]([O-])c1ccc(-n2cc(/C(Cc3ccc[nH]3)=N/O)nn2)cc1", "value": 0}
{"smiles_text": "CCC(CC)(c1ccc[nH]1)c1ccc(C/C(=N\\O)c2cn(-c3ccc(Cl)cc3)nn2)[nH]1", "value": 8}

Now for another entry.
Which zone of inhibition at 30 µg/disc value belongs to `O/N=C(\Cc1ccc[nH]1)c1cn(-c2ccc(Cl)cc2)nn1` ?
0
